- ASSAY TARGET: human sphingosine-1-phosphate receptor 1 (S1P1) (Homo sapiens, UniProt P21453)
- TEST PROTOCOL: Inhibition of cAMP production (HTRF cAMP HiRange), S1P1 CHO-K1 cells
- Format: cell-based
- SETTINGS: inhibition of cAMP production; potency; read-out: hS1P1 CAMP pEC50 (converted)
- Sequence (P21453 whole entry): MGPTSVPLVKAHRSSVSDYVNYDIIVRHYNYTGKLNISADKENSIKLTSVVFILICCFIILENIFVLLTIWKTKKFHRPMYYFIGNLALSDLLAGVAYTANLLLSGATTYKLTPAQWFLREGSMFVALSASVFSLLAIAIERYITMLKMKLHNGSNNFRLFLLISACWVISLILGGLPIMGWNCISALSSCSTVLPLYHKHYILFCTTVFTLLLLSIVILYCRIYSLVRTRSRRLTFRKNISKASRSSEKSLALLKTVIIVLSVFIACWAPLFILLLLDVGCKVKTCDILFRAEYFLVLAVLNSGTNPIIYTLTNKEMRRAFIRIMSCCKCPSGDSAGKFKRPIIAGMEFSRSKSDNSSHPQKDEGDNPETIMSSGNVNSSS
Reported EC50 by item:

Here are 6 molecules together with their reported answers.
| MOLECULE | MEASUREMENT |
| --- | --- |
| CC(C)Oc1ccc(-c2nc(-c3ccc4c(c3)nnn4C3CCCC3)no2)cc1C(F)(F)F | < 316 nM |
| Cc1ncc(-c2nc(-c3ccc4c(c3)nnn4C(C)C)no2)nc1C | > 316 nM |
| CCC1(CC)CC(=O)c2cc(-c3nc(-c4ccc(N(C)C)cc4)no3)ccc2O1 | > 316 nM |
| FC(F)Oc1ccc(-c2noc(-c3ccc4c(c3)nnn4C3CCCC3)n2)cc1 | < 316 nM |
| COc1ccc(-c2noc(-c3ccc4c(c3)nnn4C(C)C)n2)c(C)c1 | < 316 nM |
| N#Cc1cc(-c2nnc(-c3ccc4[nH]ncc4c3)o2)ccc1NCC1CC1 | < 316 nM |

The molecule CC(C)C(c1ccccc1)c1noc(-c2ccc3c(c2)nnn3C(C)C)n1 (centres unmarked) showed EC50 equal to > 316 nM

The molecule CSc1ccccc1-c1nc(-c2ccc3c(c2)nnn3C(C)C)no1 showed EC50 equal to < 316 nM

The molecule Cc1ccncc1-c1noc(-c2ccc3c(c2)nnn3CC(C)(C)O)n1 showed EC50 equal to > 316 nM

The molecule O=C1CC2(CCC(F)(F)CC2)Oc2ccc(-c3nc(-c4ccncc4)no3)cc21 showed EC50 equal to > 316 nM

The molecule N#Cc1cc(-c2nnc(-c3ccc4[nH]ncc4c3)o2)ccc1NCC(F)F showed EC50 equal to < 316 nM

The molecule FC(F)(F)c1cc(Br)ccc1-c1noc(-c2ccc3c(c2)nnn3C2CCCC2)n1 showed EC50 equal to > 316 nM

----------
- ASSAY TARGET: human sphingosine-1-phosphate receptor 1 (S1P1) (Homo sapiens)
- TEST PROTOCOL: Inhibition of cAMP production (HTRF cAMP HiRange), S1P1 CHO-K1 cells
- Assay type: cell-based
- SETTINGS: inhibition of cAMP production; potency; read-out: hS1P1 CAMP pEC50 (converted)
READOUT TYPE: EC50

Here are 3 molecules together with their reported answers.
| MOLECULE | MEASUREMENT |
| --- | --- |
| CSc1ccccc1-c1nc(-c2ccc3c(c2)nnn3C2CCCC2)no1 [Compound 16] | > 316 nM |
| CCC1(CC)CC(=O)c2cc(-c3nc(-c4ccnc(C)c4)no3)ccc2O1 [Compound 315] | < 316 nM |
| CC(C)n1nnc2cc(-c3noc(C4CCCCC4)n3)ccc21 [Compound 127] | > 316 nM |

Pending molecule:
The molecule CCC1(CC)CC(=O)c2cc(-c3nc(-c4ccc(NC)cc4)no3)ccc2O1 [Compound 153] showed EC50 equal to > 316 nM

----------
- ASSAY TARGET: human sphingosine-1-phosphate receptor 1 (S1P1) (Homo sapiens)
- TEST PROTOCOL: β-Arrestin2 recruitment assay (PathHunter), S1P1 CHO-K1 cells
- Format: cell-based
- SETTINGS: β-arrestin2 recruitment, S1P1; read-out: hS1P1 B-arrestin2 pEC50 (converted)
- Sequence (P21453 whole entry): as above
- Sequence (P32121 whole entry partner): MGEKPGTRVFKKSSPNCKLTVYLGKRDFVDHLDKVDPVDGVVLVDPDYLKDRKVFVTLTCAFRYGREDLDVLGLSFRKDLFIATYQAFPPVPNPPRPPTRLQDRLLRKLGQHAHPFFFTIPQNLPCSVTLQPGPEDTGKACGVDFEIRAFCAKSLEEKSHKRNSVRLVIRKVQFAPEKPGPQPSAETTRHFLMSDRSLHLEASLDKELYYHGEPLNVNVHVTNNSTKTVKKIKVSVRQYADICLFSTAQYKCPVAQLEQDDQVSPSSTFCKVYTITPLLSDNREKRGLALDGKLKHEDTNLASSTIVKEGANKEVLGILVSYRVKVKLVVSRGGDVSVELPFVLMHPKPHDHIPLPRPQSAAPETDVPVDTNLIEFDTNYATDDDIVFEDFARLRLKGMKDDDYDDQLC
READOUT TYPE: EC50

Here are 4 compounds together with their reported answers.
| SMILES REPR | ASSAY TARGET | EC50 |
| --- | --- | --- |
| CCC1(CC)CC(=O)c2cc(-c3ncc(-c4ccncc4)cn3)ccc2O1 | human sphingosine-1-phosphate receptor 1 (S1P1) (Homo sapiens) | < 10 µM |
| CCC1(CC)CC(=O)c2cc(-c3ncc(-c4ccccn4)cn3)ccc2O1 | human sphingosine-1-phosphate receptor 1 (S1P1) (Homo sapiens) | > 10 µM |
| COc1ccccc1-c1nc(-c2ccc3c(ccn3C(C)C)c2)no1 | human sphingosine-1-phosphate receptor 1 (S1P1) (Homo sapiens) | < 10 µM |
| Cc1ccccc1-c1cc(-c2ccc3c(c2)nnn3C(C)C)c[nH]1 | human sphingosine-1-phosphate receptor 1 (S1P1) (Homo sapiens) | < 10 µM |

Pending compound:
The compound COc1ccc(-c2nc(-c3ccc4c(c3)nnn4C(C)(C)CO)no2)c(C)c1 showed EC50 equal to > 10 µM
